- system tested: Muscarinic acetylcholine receptor M4 (Homo sapiens) (UniProt P08173)
- Sequence (P08173 whole entry, looked up): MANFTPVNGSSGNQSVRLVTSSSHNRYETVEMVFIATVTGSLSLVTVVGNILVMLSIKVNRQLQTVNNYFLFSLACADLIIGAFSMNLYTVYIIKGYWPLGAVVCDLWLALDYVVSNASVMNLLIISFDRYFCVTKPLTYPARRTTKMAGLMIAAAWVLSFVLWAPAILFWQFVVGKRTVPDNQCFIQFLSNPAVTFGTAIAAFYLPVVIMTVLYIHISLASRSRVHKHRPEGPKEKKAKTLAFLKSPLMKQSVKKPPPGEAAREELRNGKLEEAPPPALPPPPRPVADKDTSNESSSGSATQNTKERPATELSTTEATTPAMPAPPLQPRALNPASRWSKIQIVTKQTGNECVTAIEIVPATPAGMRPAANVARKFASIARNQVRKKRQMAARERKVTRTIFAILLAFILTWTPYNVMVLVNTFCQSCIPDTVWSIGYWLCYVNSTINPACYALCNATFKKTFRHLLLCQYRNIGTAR
- assay protocol: M4-linked GIRK flux change, two-sided – cell-based, HEK293 M4/GIRK, thallium flux, BTC-AM, M4 allosteric agonist project, primary screen (AID 625);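 further: thallium influx through GIRK channels coupled to M4 in HEK293 cells with BTC-AM dye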
- measurement context: at 10 µM, actives lie on both sides
Use 0.006 as the dividing line for fluorescence slope, with the line itself on the 1.0 side and lower values as 0.0.

{"compound": "C=CCN1C(=O)/C(=C2/Sc3ccccc3N2C)SC1=Nc1c(C)n[nH]c1C", "system tested": "Muscarinic acetylcholine receptor M4 (Homo sapiens) (UniProt P08173)", "group": 0.0}

-- ask Entry CSc1ccccc1C(=O)NC1CC2CCC1C2 (stereo not drawn) : is its fluorescence slope no less than 0.006?
-- reply 0.0

-- ask Entry CCN(CC)C(=O)C1=C(C)NC(=O)NC1c1c(F)cccc1Cl (stereo not drawn) : is its fluorescence slope no less than 0.006?
-- reply 0.0

-- ask Entry `Cc1noc(C)c1C(=O)Nc1sc(C)c(C)c1C#N` : is its fluorescence slope no less than 0.006?
-- reply 0.0

====

Here, each record is paired with measured NADPH fluorescence slope data.
- system tested: Voltage-gated potassium channel subunit beta-2 (Rattus norvegicus) (UniProt P62483)
- Sequence (P62483 whole entry, looked up): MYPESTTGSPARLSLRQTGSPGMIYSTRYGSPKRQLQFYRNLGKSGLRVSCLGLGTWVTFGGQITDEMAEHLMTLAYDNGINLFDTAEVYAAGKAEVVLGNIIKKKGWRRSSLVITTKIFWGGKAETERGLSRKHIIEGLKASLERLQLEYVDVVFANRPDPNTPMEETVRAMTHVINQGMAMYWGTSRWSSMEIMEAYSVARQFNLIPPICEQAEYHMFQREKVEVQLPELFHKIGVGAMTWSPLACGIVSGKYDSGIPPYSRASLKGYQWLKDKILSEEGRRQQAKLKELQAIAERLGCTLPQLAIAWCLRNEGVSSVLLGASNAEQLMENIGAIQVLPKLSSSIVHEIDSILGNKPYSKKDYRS
- assay protocol: enhancers of rat Kvbeta2 NADPH turnover – biochemical, NADPH fluorescence, primary screen (AID 623);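 further: fluorescence intensity change per second fitted from 20 to 320 s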
- measurement context: Recombinant KvBeta, NADPH fluorescence decrease slope, 10 min; at 10 µM; stronger effect = lower value
Just the number, please.

{"molecule": "Cn1c(=O)cc(SCC(=O)NCC2CCCO2)c2ccc(Cl)cc21 (centres undefined)", "system tested": "Voltage-gated potassium channel subunit beta-2 (Rattus norvegicus) (UniProt P62483)", "NADPH fluorescence slope": "-3.4e-05"}
{"molecule": "Cc1ccc(O)c(NC(=O)COc2cc(C)ccc2C)c1", "system tested": "Voltage-gated potassium channel subunit beta-2 (Rattus norvegicus) (UniProt P62483)", "NADPH fluorescence slope": "4.1e-05"}
{"molecule": "Cn1cnnc1SCC(=O)Nc1sc2c(c1C#N)CCCCC2", "system tested": "Voltage-gated potassium channel subunit beta-2 (Rattus norvegicus) (UniProt P62483)", "NADPH fluorescence slope": 0.000104}
{"molecule": "CCOC(=O)N1CCN(C(=O)c2ccc(N3C(=O)CCC3=O)cc2)CC1", "system tested": "Voltage-gated potassium channel subunit beta-2 (Rattus norvegicus) (UniProt P62483)", "NADPH fluorescence slope": "-2.7e-05"}
{"molecule": "c1ccc(-c2csc(N3CCCCCC3)n2)cc1", "system tested": "Voltage-gated potassium channel subunit beta-2 (Rattus norvegicus) (UniProt P62483)", "NADPH fluorescence slope": "9.4e-06"}
{"molecule": "Cc1cc(C)c(NC(=O)C2CCCN2CCO)c(C)c1 (centres undefined)", "system tested": "Voltage-gated potassium channel subunit beta-2 (Rattus norvegicus) (UniProt P62483)", "NADPH fluorescence slope": "-6.1e-05"}

Looking up `O=C(CCn1nc(-c2ccc(Cl)cc2)ccc1=O)N1CCN(c2ccccn2)CC1` , I see its NADPH fluorescence slope listed as -8.6e-06

Looking up `COc1ccccc1-c1cc(C(=O)NCCCn2ccnc2)no1` , I see its NADPH fluorescence slope listed as -2.7e-05

Looking up Cc1ccc(O)c(C(=O)c2cc(C#N)c(=O)n(CC3CCCO3)c2)c1 (centres undefined) , I see its NADPH fluorescence slope listed as -4.5e-05

Looking up `O=C(CN1CCN(c2ncc(C(F)(F)F)cc2Cl)CC1)Nc1ccc2c(c1)OCO2` , I see its NADPH fluorescence slope listed as -4.3e-05

Looking up `Cc1ccc(S(=O)(=O)N2CCOCC2)cc1C(=O)Nc1ccc(-c2cn3ccsc3n2)cc1` , I see its NADPH fluorescence slope listed as -8.9e-06

Looking up `O=S(=O)(CCOc1ccccc1)c1nc2ccccc2[nH]1` , I see its NADPH fluorescence slope listed as -9e-05

Looking up `CCOC(=O)c1c(C)oc2ccc(O)c(CN(C)C)c12` , I see its NADPH fluorescence slope listed as -6.7e-06

Looking up `COc1cccc(-n2c(C)nc3c(cnn3-c3ccc(C)cc3)c2=O)c1` , I see its NADPH fluorescence slope listed as 2.9e-06

Looking up `COc1cccc2cc(C(=O)n3ccc(C)n3)c(=O)oc12` , I see its NADPH fluorescence slope listed as 1.2e-05

Looking up CCCCC(CC)C(=O)Nc1ccc(Cl)cn1 (centres undefined) , I see its NADPH fluorescence slope listed as -7.8e-05

Looking up `CN(C)C(=O)Oc1ccc[n+](C)c1` , I see its NADPH fluorescence slope listed as -5.3e-05

Looking up CCOc1ccccc1CN1C(=O)c2ccccc2C1C(=O)NCC1CCCO1 (centres undefined) , I see its NADPH fluorescence slope listed as 2.5e-05

Looking up `CC(=O)SCC(=O)N=c1sc2cc(F)ccc2n1C` , I see its NADPH fluorescence slope listed as 4.8e-06

Looking up COc1ccc(C2=NOC(C(=O)NCCCN3CCOCC3)C2)cc1 (centres undefined) , I see its NADPH fluorescence slope listed as -0.000122

Looking up `Nc1nc(SCCOc2ccccc2)n[nH]1` , I see its NADPH fluorescence slope listed as -1.8e-05

Looking up CCOC(=O)N1CCC(N(C(=O)Nc2ccc(Cl)c(Cl)c2)C(C)CC)CC1 (centres undefined) , I see its NADPH fluorescence slope listed as -7.4e-06

Looking up `CCOC(=O)CSc1nc2ccccc2n2cnnc12` , I see its NADPH fluorescence slope listed as -5.9e-05

Looking up `Cc1noc(C)c1S(=O)(=O)Nc1c(C)n(C)n(-c2ccccc2)c1=O` , I see its NADPH fluorescence slope listed as 1.2e-05
